Give pIC50 for every item shown.
Molecular target: acid ceramidase (Homo sapiens, UniProt Q13510)
Construct: Cell lysates overexpressing acid ceramidase were used as the enzyme source; expressed in transfected cells
Sequence (Q13510 22-395): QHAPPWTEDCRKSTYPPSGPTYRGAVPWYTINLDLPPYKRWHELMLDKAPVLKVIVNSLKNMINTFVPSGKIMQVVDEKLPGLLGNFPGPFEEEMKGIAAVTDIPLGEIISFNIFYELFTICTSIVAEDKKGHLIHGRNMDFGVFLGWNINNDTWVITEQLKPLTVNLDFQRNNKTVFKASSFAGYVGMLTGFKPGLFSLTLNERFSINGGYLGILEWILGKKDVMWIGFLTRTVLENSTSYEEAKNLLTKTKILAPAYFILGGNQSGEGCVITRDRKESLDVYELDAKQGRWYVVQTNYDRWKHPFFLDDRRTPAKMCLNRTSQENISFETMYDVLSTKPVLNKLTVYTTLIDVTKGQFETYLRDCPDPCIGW
Assay: Acid ceramidase inhibition, biochemical fluorescent assay with cell lysates overexpressing acid ceramidase, substrate Rbm14-12
Conditions: substrate Rbm14-12 6.3 μM, pH 4.5
pIC50: −log10 of the molar value.

Here are 5 compounds together with their reported answers.
>  <compound>
COc1nc2cc(N3CCOCC3)ccc2n1C(=O)NCCCCn1ccc(C(C)(C)C)n1 [Example 188a]

>  <pIC50>
6.00 to 6.70

$$$$
>  <compound>
O=C(NCCCc1ccccc1)n1cnc2c(N3CCC(F)(F)CC3)cccc21

>  <pIC50>
> 6.70

$$$$
>  <compound>
COc1nc2cc(N3CCOCC3)ccc2n1C(=O)NCCCc1ccc(F)nc1 [Example 232b]

>  <pIC50>
< 6.00

$$$$
>  <compound>
CC(C)CCNC(=O)n1cnc2c(N3CCOCC3)cc(C#N)cc21

>  <pIC50>
> 6.70

$$$$
>  <compound>
CN1CC(N2CCN(c3cccc4c3ncn4C(=O)NCCC3CCC(F)(F)C3)CC2)C1 (stereo not drawn)

>  <pIC50>
6.00 to 6.70

$$$$

Hey, quick one: what's pIC50 for each of these?
1. CN1CCN(C2CN(c3cccc4c3ncn4C(=O)NCCC3CCC(F)(F)C3)C2)CC1 (stereo not drawn)
2. COc1nc2cc(F)c(N3CCOCC3)cc2n1C(=O)NCCc1ccccc1 [Example 334a]
3. COc1nc2cc(F)c(N3CCN(C4CN(C)C4)CC3)cc2n1C(=O)NCCCc1ccccc1 [Example 319b]
4. COc1nc2cnc(N3CCOCC3)cc2n1C(=O)NCCCc1ccccc1 [Example 213a]

// result
["6.00 to 6.70", "> 6.70", "6.00 to 6.70", "> 6.70"]

* * *

Give pIC50 for every item shown.
target: acid ceramidase (Homo sapiens, UniProt Q13510); construct: Cell lysates overexpressing acid ceramidase were used as the enzyme source; expressed in transfected cells; assay: Acid ceramidase inhibition, biochemical fluorescent assay with cell lysates overexpressing acid ceramidase, substrate Rbm14-12; conditions: substrate Rbm14-12 6.3 μM, pH 4.5
pIC50: −log10 of the molar value.

Here are 4 compounds together with their reported answers.
>  <given-smiles>
CN1[C@@H]2CC[C@H]1CN(c1cccc3c1ncn3C(=O)NCCCc1ccccc1)C2

>  <recorded-measurement>
6.00 to 6.70

$$$$
>  <given-smiles>
COc1nc2cc(N3CCN(C)CC3)ccc2n1C(=O)NCCCc1ccccc1

>  <recorded-measurement>
6.00 to 6.70

$$$$
>  <given-smiles>
CC(=O)N1CCN(c2cccc3c2ncn3C(=O)NCCCC2(C(F)(F)F)CC2)CC1

>  <recorded-measurement>
> 6.70

$$$$
>  <given-smiles>
CC(C)CCNC(=O)n1cnc2c(N3CCN(C)CC3=O)cccc21

>  <recorded-measurement>
< 6.00

$$$$

Now look at this entry.
// query I'd like to know its pIC50. The compound in question is O=C(NCCOc1ccccc1)n1cnc2c(N3CCN(C4COC4)CC3)cccc21
// result > 6.70
